- experiment-description: CREB reporter modulators under forskolin, primary screen, cell-based, PC12, CRE-LacZ reporter, forskolin-stimulated (AID 1146);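 also: PC12 cells with 6xCRE LacZ reporter stimulated by forskolin 10 µM; beta-galactosidase reporter signal reflecting CREB driven transcription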
- condition-notes: luminescence, 4.5 h, higher = more signal, called active from +8 up or from −8 down
property-label: z-score
Keep it simple and answer with nothing but the number.

Use the examples below as a reference point.
molecule	z-score
O=C1C2C=CC(C(O)c3cc(C(F)(F)F)cc(C(F)(F)F)c3)N(n3cnnc3)C2C(=O)N1Cc1ccccc1 (configuration not stated)	0.753
COCCOC(=O)N1C(=O)[C@@]2(c3cc(C#Cc4ccc(OC)cc4)ccc31)[C@H](c1ccc(OCCO)cc1)N1[C@H](c3ccccc3)[C@H](c3ccccc3)OC(=O)[C@H]1[C@@H]2C(=O)N1CCN(c2ncccn2)CC1	0.559
C=CC[C@@]1(C(=O)NCCN2CCOCC2)N=C(c2ccc(OCCCO)cc2)O[C@@H]1c1ccccc1N=[N+]=[N-]	-0.461

Incoming: For the molecule `C=CCN1C(=O)[C@]2(O[C@H](CCn3cc([C@H](O)c4ccccc4)nn3)[C@@H]([Si](C)(C)c3ccc(OC)cc3)[C@@H]2C)c2cc(N3CCC3=O)ccc21` , what z-score is on record?
Outgoing: -0.229

Incoming: Now the molecule `CCOC(=O)C[C@H]1[C@H](OC(=O)c2cc3ccccc3oc2=O)[C@@H](NC(=O)c2ccccc2)c2cc(OCCCO)ccc2N1C(=O)c1ccc2ccccc2n1`
Outgoing: -0.539

Incoming: Now the molecule `O=C(c1ccccc1)N1C(=O)[C@]2(COC(c3ccc(OCCCO)cc3)=N2)Cc2ccccc21`
Outgoing: 0.822

Incoming: Now the molecule `COCCOC(=O)N1C(=O)[C@@]2(c3cc(C#CCC(C(=O)OC)C(=O)OC)ccc31)[C@H](c1ccccc1OCCO)N1[C@H](c3ccccc3)[C@H](c3ccccc3)OC(=O)[C@H]1[C@@H]2C(=O)N1CCN(c2ncccn2)CC1`
Outgoing: 1.7

Incoming: Now the molecule `COC(=O)[C@@]1(Cc2ccc(OC)cc2)[C@H]2c3cc(C(=O)N(C)C)n(C)c3C[C@H]2CN1C(=O)c1ccccc1`
Outgoing: 0.0225

Incoming: Now the molecule `C=CCOC(=O)[C@H]1[C@@H]2C(=O)O[C@@H](c3ccccc3)[C@@H](c3ccccc3)N2[C@@H](c2ccc(OCCOC(=O)[C@@H]3C[C@@H]4C(=O)N[C@@H](CC(C)C)C(=O)N4[C@@H]3c3ccc(O)cc3)cc2)[C@]12C(=O)Nc1ccccc12`
Outgoing: 0.0707

----------
- Test system: XIP peptide (Xip251-270)
- experiment-description: small-molecule binders of XIP peptide, primary screen, biochemical, small-molecule microarray, fluorescence 635/667 nm, 0.5 µg/mL protein (AID 1183)
- condition-notes: small-molecule microarray binding, fluorescence 635 nm; higher = more signal
Would you mind labelling by composite z-score? At or over 0.3 is yes (1), under is no (0).

Please review the following examples before continuing.
chemical-structure	class
C=C(CCCC)/C(=C/C[C@H](OC(C)=O)c1ccccc1OCCO)c1cc(C(=O)OC)ccc1OC	no (0)
C=CCOC(=O)[C@H]1[C@@H]2C(=O)O[C@@H](c3ccccc3)[C@@H](c3ccccc3)N2[C@@H](c2ccc(OCCOC(=O)[C@H]3C[C@H]4C(=O)N[C@@H](CCCC[N+](C)(C)C)C(=O)N4[C@H]3c3ccc(O)cc3)cc2)[C@]12C(=O)Nc1ccc(I)cc12	yes (1)

Incoming: Does the reported composite z-score for `O=C(NC1CC1)[C@@H]1c2ccccc2C(=O)N(Cc2ccccc2Cl)[C@H]1c1ccc(CO)cc1` fall at or above the 0.3 mark?
Outgoing: no (0)

Incoming: Now the compound `O=C(c1ccccc1)N1C(=O)[C@@]2(Cc3ccccc31)N=C(c1ccc(OCCCO)cc1)O[C@H]2c1ccccc1`
Outgoing: yes (1)

Incoming: Now the compound `COc1cc2c(cc1OC)CN(C(=O)[C@@H]1[C@H]3C(=O)O[C@H](c4ccccc4)[C@H](c4ccccc4)N3[C@H](c3ccccc3OCCO)[C@@]13C(=O)Nc1ccc(C#CCCO)cc13)CC2`
Outgoing: yes (1)

----------
- experiment-description: S. cerevisiae growth modulation with rapamycin, primary screen, strain BY4716, OD600, 96 h (AID 1091)
- condition-notes: higher = more signal, called active from +8 up or from −8 down
Calls of active or inactive are those of the source.
property-label: z-score

Use the examples below as a reference point.
compound	z-score
Cc1nc2cc(Br)ccc2c(=O)o1	-1.07 (inactive)
COC(=O)[C@@]1(CCC(=O)OC(C)(C)C)N=C(c2ccc(OCCCO)cc2)O[C@H]1c1ccccc1N=[N+]=[N-]	33.6 (active)
COc1cc2c(cc1OC)CN(C(=O)[C@H]1[C@@H]3C(=O)O[C@@H](c4ccccc4)[C@@H](c4ccccc4)N3[C@@H](c3ccc(O)cc3)[C@]13C(=O)Nc1ccccc13)CC2	1.74 (inactive)

Incoming: For the compound `COC(=O)[C@@]1(Cc2ccccc2)[C@H]2c3cc(C(=O)N4CCCC4)n(Cc4ccc(S(C)(=O)=O)cc4)c3C[C@H]2CN1C(=O)c1ccccc1` , what z-score is on record?
Outgoing: 0.671 (inactive)

Incoming: Now the compound CC(C)c1ccc(NN2C(C(O)c3ccc(B(O)O)cc3)C=CC3C(=O)N(c4ccccc4)C(=O)C32)cc1 (stereo not drawn)
Outgoing: 0.617 (inactive)

Incoming: Now the compound `CC(C)C(=C=CC[C@@H](O)c1ccc(OCCO)cc1)C[C@@H](O)c1ccccn1`
Outgoing: -0.347 (inactive)

Incoming: Now the compound O=C1C2C=CC(C(O)c3cccc4ccccc34)N(Nc3ccccc3F)C2C(=O)N1c1ccccc1 (stereo not drawn)
Outgoing: 1.01 (inactive)

Incoming: Now the compound `CC(C)NC(=O)[C@@H]1c2ccccc2C(=O)N(C2Cc3ccccc3C2)[C@H]1c1ccc(CO)cc1`
Outgoing: -0.377 (inactive)

----------
- experiment-description: small-molecule microarray binders of probe aNog, primary screen, biochemical, biotinylated probe, 635/667 nm fluorescence (AID 1115);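 also: probe is biotinylated aNog protein used at 0.15 µg/mL for 1 h at 4 C; z-score combines 667 nm fluorescence of each spot with its signal to noise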
- condition-notes: higher = more signal
property-label: composite z-score

Use the examples below as a reference point.
chemical-structure	composite z-score
COc1ccc([Si](C)(C)[C@@H]2[C@@H](CCO)O[C@]3(C(=O)N(Cc4ccc(N(C=O)c5ccccc5)cc4)c4ccccc43)[C@H]2C)cc1	0.286
C=C(COC)/C(=C/C[C@@H](OC(=O)c1ccncc1)c1ccc(CO)o1)c1cc(C(=O)OC)ccc1OC	-0.18

Incoming: For the molecule `C=CCOC(=O)[C@H]1[C@@H]2C(=O)O[C@@H](c3ccccc3)[C@@H](c3ccccc3)N2[C@@H](c2ccc(OCCOC(=O)[C@H]3C[C@H]4C(=O)N[C@@H](CCCC[N+](C)(C)C)C(=O)N4[C@H]3c3ccc(O)cc3)cc2)[C@]12C(=O)Nc1ccc(I)cc12` , what composite z-score is on record?
Outgoing: 1.86

----------
- experimental-system: Luciferin 4-monooxygenase (Photinus pyralis) (UniProt P08659)
- Sequence (P08659 whole entry, looked up): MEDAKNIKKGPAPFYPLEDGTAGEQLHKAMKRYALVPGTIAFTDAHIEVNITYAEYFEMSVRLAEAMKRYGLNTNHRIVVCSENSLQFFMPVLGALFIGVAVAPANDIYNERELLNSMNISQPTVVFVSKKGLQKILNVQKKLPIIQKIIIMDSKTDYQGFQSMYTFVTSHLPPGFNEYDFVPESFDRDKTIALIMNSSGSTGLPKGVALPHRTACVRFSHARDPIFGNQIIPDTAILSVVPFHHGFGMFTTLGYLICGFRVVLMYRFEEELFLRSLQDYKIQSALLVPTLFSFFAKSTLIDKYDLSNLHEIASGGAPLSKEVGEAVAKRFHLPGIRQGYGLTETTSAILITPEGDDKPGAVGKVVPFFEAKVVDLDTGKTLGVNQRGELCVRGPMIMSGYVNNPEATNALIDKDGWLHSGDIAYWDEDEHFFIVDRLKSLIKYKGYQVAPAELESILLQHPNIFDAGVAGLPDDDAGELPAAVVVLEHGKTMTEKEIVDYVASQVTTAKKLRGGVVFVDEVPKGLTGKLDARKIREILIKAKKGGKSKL
- experiment-description: firefly luciferase enzyme inhibitors, primary screen, biochemical, luminescence, purified enzyme, 2006 set (AID 1141);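 also: cell-free assay with purified firefly luciferase at 100 ng per well in PBS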
- condition-notes: SteadyGlo luminescence, 30 min, higher = more signal, called active from +8 up or from −8 down
z-score: recorded values
Keep it simple and answer with nothing but the number.

Use the examples below as a reference point.
chemical-structure	reported-result
CCC[C@@H]1C[C@@]1(CCC)[C@@H](NS(=O)(=O)c1cccc2cccnc12)c1ccc(Cl)cc1	0.19
CC(C)NC(=O)[C@@]1(c2ccc([N+](=O)[O-])cc2)CC(=O)N(C2CCCCC2)[C@@H]1c1ccc(CO)cc1I	-1.11
COCCOC(=O)N1C(=O)[C@@]2(c3cc(C#CC4(O)CCCCCC4)ccc31)[C@H](c1ccccc1OCCO)N1[C@H](c3ccccc3)[C@H](c3ccccc3)OC(=O)[C@H]1[C@@H]2C(=O)N1CCN(c2ncccn2)CC1	-1.04
CN(C)CCCC[C@@H]1NC(=O)[C@@H]2C[C@H](C(=O)NCCCCCCN)[C@H](c3cccc(OCCO)c3)N2C1=O	0.132
COCCOC(=O)N1C(=O)[C@@]2(c3cc(C#Cc4ccc(OC)cc4)ccc31)[C@H](c1ccc(OCCO)cc1)N1[C@H](c3ccccc3)[C@H](c3ccccc3)OC(=O)[C@H]1[C@@H]2C(=O)N1CCN(c2ncccn2)CC1	-0.618

Incoming: For the compound `COc1ccc(CCNC(=O)[C@@H]2c3ccccc3C(=O)N(Cc3ccccc3Cl)[C@H]2c2ccc(CO)cc2)cc1` , what z-score is on record?
Outgoing: -0.745

----------
- experimental-system: NADPH oxidase 5 (Homo sapiens) (UniProt Q96PH1)
- Sequence (Q96PH1 whole entry, looked up): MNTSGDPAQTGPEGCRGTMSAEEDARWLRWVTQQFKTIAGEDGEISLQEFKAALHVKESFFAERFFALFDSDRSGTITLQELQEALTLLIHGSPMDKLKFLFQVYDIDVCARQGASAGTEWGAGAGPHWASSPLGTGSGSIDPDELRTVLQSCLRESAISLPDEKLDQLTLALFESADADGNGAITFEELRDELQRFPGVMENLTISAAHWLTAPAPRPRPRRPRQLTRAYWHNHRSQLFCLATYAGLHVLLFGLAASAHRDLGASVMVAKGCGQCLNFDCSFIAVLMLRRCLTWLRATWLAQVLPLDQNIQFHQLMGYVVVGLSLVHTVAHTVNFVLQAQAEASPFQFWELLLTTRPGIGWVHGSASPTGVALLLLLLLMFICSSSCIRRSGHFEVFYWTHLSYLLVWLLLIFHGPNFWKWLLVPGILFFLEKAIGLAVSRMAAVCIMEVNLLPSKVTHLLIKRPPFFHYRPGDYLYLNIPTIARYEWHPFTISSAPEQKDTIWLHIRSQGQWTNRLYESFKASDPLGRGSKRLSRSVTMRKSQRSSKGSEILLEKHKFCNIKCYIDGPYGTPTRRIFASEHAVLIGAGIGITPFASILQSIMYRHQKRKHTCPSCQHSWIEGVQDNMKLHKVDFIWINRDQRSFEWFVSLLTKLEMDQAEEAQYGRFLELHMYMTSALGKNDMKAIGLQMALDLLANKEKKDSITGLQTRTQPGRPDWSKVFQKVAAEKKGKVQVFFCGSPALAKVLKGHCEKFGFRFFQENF
- experiment-description: NOX5-dependent H2O2 signal modulators, primary screen, NOX inhibitor project, cell-based, HEK293-NOX5, Amplex Red fluorescence (AID 1161)
- condition-notes: HEK293-NOX5, ionomycin, 45 min, higher = more signal
property-label: z-score
Keep it simple and answer with nothing but the number.

Incoming: For the compound `CN(C)CCCC[C@@H]1NC(=O)[C@@H]2C[C@H](C(=O)NCCCCCCN)[C@H](c3cccc(OCCO)c3)N2C1=O` , what z-score is on record?
Outgoing: 0.941

Incoming: Now the compound `COC(=O)[C@@]1(Cc2ccc(OC)cc2)[C@H]2c3cc(C(=O)N(C)C)n(Cc4ccccn4)c3C[C@H]2CN1C(=O)c1ccccc1`
Outgoing: -2.73

Incoming: Now the compound CC1CC/C=C\[C@H]2OC34C=CCN(C(C)(C)C)C(=O)[C@H]3N(CCO)C(=O)[C@@H]4C2C(=O)O1 (some centres not stated)
Outgoing: 2.57

Incoming: Now the compound CN1C(=O)C2C=CC(C(O)c3ccc([N+](=O)[O-])cc3)N(N3CCCCC3)C2C1=O (configuration not stated)
Outgoing: -1.12

Incoming: Now the compound C=C(C)[C@@H]1CC=C(C(O)C2C=CC3C(=O)N(c4ccccc4)C(=O)C3N2Nc2ccccc2)CC1 (some centres not stated)
Outgoing: -2.48

Incoming: Now the compound `CC(C)CNC(=O)[C@@]1(Cc2ccccc2I)c2ccccc2C(=O)N(C2CCCCC2)[C@H]1c1ccc(CO)cc1`
Outgoing: 0.184

Incoming: Now the compound `C=CCOC(=O)[C@H]1[C@@H]2C(=O)O[C@@H](c3ccccc3)[C@@H](c3ccccc3)N2[C@@H](c2ccc(OCCOC(=O)[C@H]3C[C@H]4C(=O)N[C@@H](CCCCNC(C)=O)C(=O)N4[C@H]3c3cccc(OCCO)c3)cc2)[C@]12C(=O)Nc1ccccc12`
Outgoing: 0.8
